# test_target: T1, EsCas13d, nuclease-dead (Eubacterium siraeum, UniProt B0MS50, R295A;H300A;R849A;H854A)
# T1 sequence: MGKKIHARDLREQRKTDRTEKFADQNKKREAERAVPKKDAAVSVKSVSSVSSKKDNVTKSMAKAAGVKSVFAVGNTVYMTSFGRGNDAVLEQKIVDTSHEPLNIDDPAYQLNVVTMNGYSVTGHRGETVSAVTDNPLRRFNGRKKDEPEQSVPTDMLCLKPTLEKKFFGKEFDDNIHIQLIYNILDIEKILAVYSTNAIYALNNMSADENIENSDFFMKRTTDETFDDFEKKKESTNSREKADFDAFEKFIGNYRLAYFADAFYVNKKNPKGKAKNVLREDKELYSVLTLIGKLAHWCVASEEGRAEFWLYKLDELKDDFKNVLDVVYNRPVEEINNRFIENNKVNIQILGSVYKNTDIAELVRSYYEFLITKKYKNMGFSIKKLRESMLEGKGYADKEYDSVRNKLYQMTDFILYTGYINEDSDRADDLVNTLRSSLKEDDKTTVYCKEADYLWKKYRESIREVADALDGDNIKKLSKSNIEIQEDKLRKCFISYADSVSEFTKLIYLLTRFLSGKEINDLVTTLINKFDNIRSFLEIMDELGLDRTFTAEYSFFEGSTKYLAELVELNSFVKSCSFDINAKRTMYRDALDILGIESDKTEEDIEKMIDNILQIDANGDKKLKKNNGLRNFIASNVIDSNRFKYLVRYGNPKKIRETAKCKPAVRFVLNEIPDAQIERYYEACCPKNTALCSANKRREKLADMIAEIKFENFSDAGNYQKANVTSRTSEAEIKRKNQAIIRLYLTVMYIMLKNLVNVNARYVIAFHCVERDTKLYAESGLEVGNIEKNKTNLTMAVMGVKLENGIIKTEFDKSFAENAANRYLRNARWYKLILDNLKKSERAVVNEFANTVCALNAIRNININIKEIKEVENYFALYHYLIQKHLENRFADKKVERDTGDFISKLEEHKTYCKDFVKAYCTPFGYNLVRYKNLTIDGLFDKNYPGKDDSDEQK
# assay_details: crRNA (strand 1, pre-loaded); Mg2+; 40 mM Tris-HCl pH 7.5, 150 mM NaCl, 6 mM MgCl2, 1 mM DTT, 0.1% Tween-20, 0.2 mg/ml BSA; 25 C; 10 min per concentration, then washed
# cond: tags: His6-TwinStrep-SUMO cleaved; N-terminal SNAP kept (SNAP-Surface 488); label: 3' end held by stalled T7 RNA polymerase
measure: pKd
Answers are plain numbers, as −log10 of the molar value.

{"binder": "target 1 MT 5'PFS UUA 3'PFS ACG (mixed) RNA 1: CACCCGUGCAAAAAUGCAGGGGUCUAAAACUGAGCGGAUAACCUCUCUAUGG RNA 2: GGGAAUGGAUCCACAUCUACGAAUUCUUACCAUAGAGAGGUUAUCCGCUCAACGAGAUCGGAAGAGCACACGU", "pKd": 7.66}

Count: 7. Required value per item: pKd.
1. target 1 MT 5'PFS GCA 3'PFS UGU (mixed) RNA 1: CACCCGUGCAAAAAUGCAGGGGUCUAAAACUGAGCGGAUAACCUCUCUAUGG RNA 2: GGGAAUGGAUCCACAUCUACGAAUUCGCACCAUAGAGAGGUUAUCCGCUCAUGUAGAUCGGAAGAGCACACGU
2. target 1 insA 3' of 17,insU 3' of 1 (mixed) RNA 1: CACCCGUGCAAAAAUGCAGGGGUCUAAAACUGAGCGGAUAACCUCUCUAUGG RNA 2: GGGAAUGGAUCCACAUCUACGAAUUCGUACCAUAGAAGAGGUUAUCCGCUCAUCCGAGAUCGGAAGAGCACACGU
3. target 2 MT 5'PFS AGC 3'PFS CAG (mixed) RNA 1: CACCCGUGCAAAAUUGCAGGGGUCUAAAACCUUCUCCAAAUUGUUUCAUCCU RNA 2: GGGAAUGGAUCCACAUCUACGAAUUCAGCAGGAUGAAACAAUUUGGAGAAGCAGAGAUCGGAAGAGCACACGU
4. target 1 MT 5'PFS GGA 3'PFS ACC (mixed) RNA 1: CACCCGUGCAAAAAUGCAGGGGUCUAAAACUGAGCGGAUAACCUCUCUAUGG RNA 2: GGGAAUGGAUCCACAUCUACGAAUUCGGACCAUAGAGAGGUUAUCCGCUCAACCAGAUCGGAAGAGCACACGU
5. target 2 MT 5'PFS GGC 3'PFS UGA (mixed) RNA 1: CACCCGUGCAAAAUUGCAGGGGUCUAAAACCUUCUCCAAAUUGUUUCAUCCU RNA 2: GGGAAUGGAUCCACAUCUACGAAUUCGGCAGGAUGAAACAAUUUGGAGAAGUGAAGAUCGGAAGAGCACACGU
6. target 1 insC 3' of 18,insA 3' of 6 (mixed) RNA 1: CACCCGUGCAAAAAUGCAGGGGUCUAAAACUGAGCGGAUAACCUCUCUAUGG RNA 2: GGGAAUGGAUCCACAUCUACGAAUUCGUACCAUACGAGAGGUUAUCCAGCUCACCGAGAUCGGAAGAGCACACGU
7. target 1 MT 5'PFS UUG 3'PFS UUG (mixed) RNA 1: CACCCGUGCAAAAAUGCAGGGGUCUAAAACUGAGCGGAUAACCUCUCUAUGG RNA 2: GGGAAUGGAUCCACAUCUACGAAUUCUUGCCAUAGAGAGGUUAUCCGCUCAUUGAGAUCGGAAGAGCACACGU

[7.46, 7.73, 8.17, 7.56, 7.74, 7.49, 7.74]

Batch of 3 binders: report pKd for each.
1. target 1 insU 3' of 13,insC 3' of 5 (mixed) RNA 1: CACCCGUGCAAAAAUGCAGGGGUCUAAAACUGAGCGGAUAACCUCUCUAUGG RNA 2: GGGAAUGGAUCCACAUCUACGAAUUCGUACCAUAGAGAGUGUUAUCCGCCUCACCGAGAUCGGAAGAGCACACGU
2. target 1 MT 5'PFS UUG 3'PFS AGA (mixed) RNA 1: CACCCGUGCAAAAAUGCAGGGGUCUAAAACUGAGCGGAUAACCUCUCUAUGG RNA 2: GGGAAUGGAUCCACAUCUACGAAUUCUUGCCAUAGAGAGGUUAUCCGCUCAAGAAGAUCGGAAGAGCACACGU
3. target 1 MT 5'PFS GUG 3'PFS CAA (mixed) RNA 1: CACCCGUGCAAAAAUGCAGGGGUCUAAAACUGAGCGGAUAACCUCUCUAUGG RNA 2: GGGAAUGGAUCCACAUCUACGAAUUCGUGCCAUAGAGAGGUUAUCCGCUCACAAAGAUCGGAAGAGCACACGU

7.68
7.05
7.51
